Molecular target: Histone deacetylase 8 (Homo sapiens, UniProt Q9BY41)
Sequence (Q9BY41 whole entry): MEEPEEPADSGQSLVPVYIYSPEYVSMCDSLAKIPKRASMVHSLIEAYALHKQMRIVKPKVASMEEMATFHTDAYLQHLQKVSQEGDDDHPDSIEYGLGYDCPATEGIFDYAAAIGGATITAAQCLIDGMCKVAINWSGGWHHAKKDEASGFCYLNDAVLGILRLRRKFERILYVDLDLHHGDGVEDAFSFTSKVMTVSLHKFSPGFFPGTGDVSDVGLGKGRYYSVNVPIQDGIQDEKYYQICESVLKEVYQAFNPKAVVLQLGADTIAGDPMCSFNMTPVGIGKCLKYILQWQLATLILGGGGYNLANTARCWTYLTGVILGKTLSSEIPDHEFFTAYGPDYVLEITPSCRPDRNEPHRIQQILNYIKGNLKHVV
Assay: Inhibition of human recombinant HDAC8 using Boc-Lys(triflouroacetyI)-AMC substrate incubated for 2 hrs by fluorescence based assay
pIC50: −log10 of the molar value.
Value type: pIC50

smiles_str=CCCNNC(=O)c1ccc(CNC(=O)/C=C/c2ccccc2)cc1 assay_target="Histone deacetylase 8 (Homo sapiens, UniProt Q9BY41)" data_value="< 5.30"

Please look up its pIC50: `CCCNNC(=O)c1ccc(CNC(=O)c2cc3ccccc3[nH]2)cc1`
< 5.30

###

Test: Half life in CD-1 mouse at 20 mg/kg, po measured upto 24 hrs
Type: ADME, organism-based
Conditions: in vivo
Value type: half-life

Please look up its half-life: `CCCNNC(=O)c1ccc(CNC(=O)c2cc3ccccc3[nH]2)cc1`
2.58 h

###

Test system: MOLM-13
Assay: Antiproliferative activity against human MOLM-13 cells assessed as reduction in cell viability measured after 48 hrs by multiplate reader method
Settings: MOLM-13, 48 h
Value type: IC50 (µM)
Your answer should be a plain number; it is taken to be in µM.

smiles_str=CCCNNC(=O)c1ccc(CNC(=O)/C=C/c2ccccc2)cc1 assay_target=MOLM-13 value_type=IC50 unit_abbreviation=µM data_value=0.103

Next compound, IC50 to be filled in.
Please look up its IC50: `CCCNNC(=O)c1ccc(CNC(=O)c2cc3ccccc3[nH]2)cc1`
0.0404

###

Experiment: Drug distribution in tumor of BALB/c mouse xenografted with human MV4-11 cells assessed as measured after 8 hrs
Format: ADME
Conditions: read-out: Drug uptake
Value type: concentration at 8 h (ng/g)
Your answer should be a plain number; it is taken to be in ng/g.

Please look up its concentration at 8 h: `CCCNNC(=O)c1ccc(CNC(=O)c2cc3ccccc3[nH]2)cc1`
151

###

System: MV4-11
Experiment: cells
Conditions: Homo sapiens, MV4-11, 48 h
Description: Antiproliferative activity against human MV4-11 AML cells assessed as cell viability measured after 48 hrs by multiplate reader method
Value type: IC50 (nM)
Your answer should be a plain number; it is taken to be in nM.

Check out these entries, answers already filled in.
smiles_str=CCCNNC(=O)c1ccc(CNC(=O)c2ccc3ccccc3c2)cc1 value_type=IC50 data_value=43.6
smiles_str=CCCNNC(=O)c1ccc(CNC(=O)c2cc3ccccc3cn2)cc1 value_type=IC50 data_value=45.9
smiles_str=CCCNNC(=O)c1ccc(CNC(=O)c2cc3cc(Cl)ccc3[nH]2)cc1 value_type=IC50 data_value=37.7
smiles_str=C=CCOc1ccc2oc(C(=O)NCc3ccc(C(=O)NNCCC)cc3)cc2c1 value_type=IC50 data_value=53.8
smiles_str=CCCNNC(=O)c1ccc(CNC(=O)c2cc3cc(OC)ccc3[nH]2)cc1 value_type=IC50 data_value=37.5

Please look up its IC50: `CCCNNC(=O)c1ccc(CNC(=O)c2cc3cc(Br)ccc3[nH]2)cc1`
66.5

For `CCCNNC(=O)c1ccc(CNC(=O)c2cnc3ccccc3c2)cc1` then?
71

For `CCCNNC(=O)c1ccc(CNC(=O)c2ccc3cnccc3n2)cc1` then?
59.7

For `CCCNNC(=O)c1ccc(CNC(=O)c2cc3cc(F)ccc3[nH]2)cc1` then?
91.2

For `CCCNNC(=O)c1ccc(CNC(=O)c2ccc3cnccc3c2)cc1` then?
64.1

For `CCCNNC(=O)c1ccc(CNC(=O)/C=C/c2ccccc2)cc1` then?
36.4
